- TGT: BRAF V600E (Homo sapiens, UniProt P15056, V600E)
- Construct: endogenous C-terminal HiBiT fusion tag on BRAF V600E allele; endogenous in cells; host or cells: A375 clone 1F10 (CRISPR-Cas9 knock-in of the HiBiT tag; parental A375 from ATCC)
- Sequence (P15056 whole entry V600E, the tested form may be a part): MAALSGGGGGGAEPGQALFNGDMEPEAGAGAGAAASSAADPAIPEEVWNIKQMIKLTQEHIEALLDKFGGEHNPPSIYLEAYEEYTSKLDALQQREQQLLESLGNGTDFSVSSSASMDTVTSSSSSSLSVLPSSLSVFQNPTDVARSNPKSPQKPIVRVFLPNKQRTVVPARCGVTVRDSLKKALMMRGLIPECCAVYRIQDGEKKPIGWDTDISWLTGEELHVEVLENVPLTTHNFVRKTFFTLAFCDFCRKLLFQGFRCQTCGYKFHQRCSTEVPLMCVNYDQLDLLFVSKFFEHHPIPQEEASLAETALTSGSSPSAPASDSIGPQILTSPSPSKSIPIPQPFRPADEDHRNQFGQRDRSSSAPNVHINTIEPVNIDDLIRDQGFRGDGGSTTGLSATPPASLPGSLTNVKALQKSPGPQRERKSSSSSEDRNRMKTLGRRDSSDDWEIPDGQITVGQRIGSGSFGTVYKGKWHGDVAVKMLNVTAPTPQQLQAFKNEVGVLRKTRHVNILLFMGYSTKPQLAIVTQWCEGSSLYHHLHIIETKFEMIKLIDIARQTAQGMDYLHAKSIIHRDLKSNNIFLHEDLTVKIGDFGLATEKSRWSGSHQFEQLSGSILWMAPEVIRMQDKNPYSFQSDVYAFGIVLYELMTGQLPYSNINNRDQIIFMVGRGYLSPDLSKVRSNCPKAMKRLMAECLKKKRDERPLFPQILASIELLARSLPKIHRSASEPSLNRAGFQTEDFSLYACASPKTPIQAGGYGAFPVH
- TEST_DETAILS: BRAF HiBiT degradation assay, C-terminal HiBiT-tagged BRAF V600E A375 cells (clone 1F10), Nano-Glo HiBiT Lytic assay
- Format: cell-based
- EXPERIMENTAL_CONDITIONS: A-375; A375 (BRAF V600E); percentage protein degraded at maximal compound effect relative to DMSO
PROPERTY_MEASURED: Dmax

Q: Please report Dmax for the following molecule: CCCS(=O)(=O)Nc1cccc(-c2nc(C3CCN(C(=O)C4CCN(CC5CCN(c6ccc(C7CCC(=O)NC7=O)cn6)CC5)CC4)CC3)sc2-c2ccncc2)c1F (racemic) [Compound 211]
Result: > 70%

Q: Please report Dmax for the following molecule: CCCS(=O)(=O)Nc1cccc(-c2nc(C3CCN(C(=O)C4(C)CCN(C(=O)C5CCN(c6ccc(C7CCC(=O)NC7=O)cn6)CC5)CC4)CC3)sc2-c2ccnc(N)n2)c1F (racemic) [Compound 197]
Result: > 70%

Q: Please report Dmax for the following molecule: CCCS(=O)(=O)Nc1cccc(-c2cn(-c3ccc(C4CCN(CC5CCN(c6ccc(C7CCC(=O)NC7=O)cc6)CC5)CC4)cc3)nc2-c2ccncc2)c1F (racemic) [Compound 25]
Result: > 70%

---

Please respond with reported DC50 for every item in the list.
- TGT: BRAF G469A (Homo sapiens, UniProt P15056, G469A)
- Construct: Horizon Discovery (HCT-116 BRAF−/− cells); host or cells: HCT-116 BRAF−/− cells, clone 34, lentiviral transduction
- Sequence (P15056 whole entry G469A): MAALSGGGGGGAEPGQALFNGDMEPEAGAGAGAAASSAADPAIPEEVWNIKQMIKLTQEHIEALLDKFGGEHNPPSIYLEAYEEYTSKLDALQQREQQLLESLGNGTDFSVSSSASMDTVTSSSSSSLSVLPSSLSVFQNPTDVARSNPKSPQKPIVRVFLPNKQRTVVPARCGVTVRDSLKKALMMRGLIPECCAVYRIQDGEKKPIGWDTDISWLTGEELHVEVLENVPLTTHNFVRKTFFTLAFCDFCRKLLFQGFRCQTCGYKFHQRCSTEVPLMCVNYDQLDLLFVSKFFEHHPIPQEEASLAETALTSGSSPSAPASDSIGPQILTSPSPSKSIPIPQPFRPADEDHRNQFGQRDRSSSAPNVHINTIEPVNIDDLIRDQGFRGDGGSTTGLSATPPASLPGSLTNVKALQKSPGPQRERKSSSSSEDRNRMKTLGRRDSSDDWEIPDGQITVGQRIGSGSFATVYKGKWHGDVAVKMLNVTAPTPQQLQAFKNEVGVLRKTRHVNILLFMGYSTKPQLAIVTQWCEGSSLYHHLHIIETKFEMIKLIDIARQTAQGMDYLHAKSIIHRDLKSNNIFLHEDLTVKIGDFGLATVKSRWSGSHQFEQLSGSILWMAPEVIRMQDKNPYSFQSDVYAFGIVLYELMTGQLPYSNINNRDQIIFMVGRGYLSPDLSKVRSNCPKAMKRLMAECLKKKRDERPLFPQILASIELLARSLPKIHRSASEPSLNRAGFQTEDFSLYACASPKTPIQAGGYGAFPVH
- TEST_DETAILS: BRAF HiBiT degradation assay, C-terminal HiBiT-tagged BRAF G469A overexpressed in HCT-116 BRAF−/− cells (clone 34), Nano-Glo HiBiT Lytic assay
- Format: cell-based
- EXPERIMENTAL_CONDITIONS: BRAF G469A (Class 2), HCT-116 BRAF−/− cells; DC50 at 50% degradation

Q: Please report DC50 for the following molecule: C[C@@H]1CN(c2ccc(-n3cc(-c4cc(Cl)cc(NS(=O)(=O)N5CCCC5)c4F)c(-c4ccncc4)n3)cc2)CCN1CC1CCN(c2ccc([C@H]3CCC(=O)NC3=O)cc2)CC1
Result: 10 to 50 nM

Q: Please report DC50 for the following molecule: CCCS(=O)(=O)Nc1cccc(-c2nc(C3CCC4(CC3)CCN(CC[C@H]3CCN(c5ccc(C6CCC(=O)NC6=O)cn5)C3)CC4)sc2-c2ccnc(N)n2)c1F (mixture of isomers)
Result: > 500 nM

Q: Please report DC50 for the following molecule: O=C1CC[C@H](c2ccc(N3CCC(CN4CCN(c5ccc(-n6cc(-c7cc(Cl)cc(NS(=O)(=O)C8CCCC8)c7F)c(-c7ccncc7)n6)cc5)CC4)CC3)nc2)C(=O)N1
Result: 10 to 50 nM

Q: Please report DC50 for the following molecule: O=C1CC[C@H](c2ccc(N3CCC(CN4CCN(c5ccc(-n6cc(-c7cc(Cl)cc(NS(=O)(=O)N8CCCC8)c7F)c(-c7ccncc7)n6)cc5)CC4)CC3)cc2)C(=O)N1
Result: < 10 nM

Q: Please report DC50 for the following molecule: O=C1CCC(c2ccc(N3CCC(CN4CCN(c5ccc(-n6cc(-c7cc(C(F)F)cc(NS(=O)(=O)N8CCCC8)c7F)c(-c7ccncc7)n6)c(F)c5)CC4)CC3)nc2)C(=O)N1 (racemic)
Result: 10 to 50 nM

Q: Please report DC50 for the following molecule: O=C1CC[C@H](c2ccc(N3CCC(CN4CCN(c5ccc(-n6cc(-c7cc(C(F)F)cc(NS(=O)(=O)N8CCCC8)c7F)c(-c7ccncc7)n6)cc5)CC4)CC3)cc2)C(=O)N1
Result: < 10 nM

Q: Please report DC50 for the following molecule: O=C1CCN(c2ccc(N3CCC(CN4CCN(c5ccc(-n6cc(-c7cc(Cl)cc(NS(=O)(=O)N8CC(F)C8)c7F)c(-c7ccncc7)n6)c(F)c5)CC4)CC3)cc2)C(=O)N1
Result: > 500 nM
